molecular target: mGFP-K-RASG12V (Homo sapiens (Human), UniProt P01116, G12V); assay: K-Ras mislocalization assay (confocal microscopy, Manders coefficient); type: cell-based; parameters: key: Manders coefficient: fraction of mCherry-CAAX co-localizing with GFP-K-Ras; details: maximal effect, Manders coefficient; MDCK cells, 48 h
MEASUREMENT_NAME: Emax
Answer with the value's number alone.

Look over these answered cases.
COMPOUND | Emax
CC1CCc2ccccc2N1CC=C(c1ccccc1)c1ccccc1 (stereo not drawn) [NY304] | 0.751
O=C(c1cnc2ccccc2n1)N(CC=C(c1ccccc1)c1ccccc1)CCN1CCCC1 [PW285] | 0.62

Form field: Emax recorded for C[C@H](c1ccc(F)cc1)N(CC=C(c1ccccc1)c1ccccc1)CCn1cc(CO)nn1 [PW304] with mGFP-K-RASG12V (Homo sapiens (Human), UniProt P01116, G12V) (enter value)
0.794

Form field: Emax recorded for C[C@@H](NCCN1c2ccccc2CCc2ccccc21)c1ccc(F)cc1 [NY0552] with mGFP-K-RASG12V (Homo sapiens (Human), UniProt P01116, G12V) (enter value)
0.426

Form field: Emax recorded for COc1ccc([C@@H](C)N(CC=C(c2ccccc2)c2ccccc2)CCN2CCCCC2)cc1 [NY329] with mGFP-K-RASG12V (Homo sapiens (Human), UniProt P01116, G12V) (enter value)
0.83
